- Test system: expanded OPCs
- assay_method_text: cells
- conditions_used: Rattus norvegicus, 72 h, read-out: 1 µM (% DMSO), alamarBlue viability of expanded OPCs, compound at 1 µM, sheet All Tox data
reported_endpoint: viability at 1 µM
The answer consists of two parts: a number and, after it, its unit.

As a guide, the following entries are already answered.
                                   compound  reported_endpoint  measured_value
0  COc1ccc2c(c1)[C@]13CCCC[C@@H]1[C@H](C2)N(C)CC3  viability at 1 µM           86.9%
1  COC(=O)C1=C(C)NC(C)=C(C(=O)OC2CCCN(Cc3ccccc3)C2)C1c1cccc([N+](=O)[O-])c1 (stereo not drawn)  viability at 1 µM             93%
2  CC(=O)[C@]1(O)Cc2c(O)c3c(c(O)c2[C@@H](O[C@H]2C[C@H](N)[C@H](O)[C@H](C)O2)C1)C(=O)c1ccccc1C3=O  viability at 1 µM           10.9%
3   Cn1nnc2c(C(N)=O)ncn2c1=O [Temozolomide]  viability at 1 µM           94.7%
4  O[C@@H]1CCCC[C@H]1N1CCC(c2ccccc2)CC1 (racemic) [Vesamicol, reference compound]  viability at 1 µM            120%
5  CC[C@H](C)C(=O)O[C@H]1C[C@H](O)C=C2C=C[C@H](C)[C@H](CC[C@@H](O)C[C@@H](O)CC(=O)O)[C@H]21  viability at 1 µM            124%

Exam item: So what's the measured viability at 1 µM for this one? CCOC(=O)[C@H](CCc1ccccc1)N[C@H]1CCc2ccccc2N(CC(=O)O)C1=O
Marked response: 88.2%
